Hey, just so you know, these numbers are from patent US20240124439A1.

- assay system: IL-2-Inducible T-Cell Kinase (ITK) (Homo sapiens (Human), UniProt Q08881)
- Sequence (Q08881 whole entry): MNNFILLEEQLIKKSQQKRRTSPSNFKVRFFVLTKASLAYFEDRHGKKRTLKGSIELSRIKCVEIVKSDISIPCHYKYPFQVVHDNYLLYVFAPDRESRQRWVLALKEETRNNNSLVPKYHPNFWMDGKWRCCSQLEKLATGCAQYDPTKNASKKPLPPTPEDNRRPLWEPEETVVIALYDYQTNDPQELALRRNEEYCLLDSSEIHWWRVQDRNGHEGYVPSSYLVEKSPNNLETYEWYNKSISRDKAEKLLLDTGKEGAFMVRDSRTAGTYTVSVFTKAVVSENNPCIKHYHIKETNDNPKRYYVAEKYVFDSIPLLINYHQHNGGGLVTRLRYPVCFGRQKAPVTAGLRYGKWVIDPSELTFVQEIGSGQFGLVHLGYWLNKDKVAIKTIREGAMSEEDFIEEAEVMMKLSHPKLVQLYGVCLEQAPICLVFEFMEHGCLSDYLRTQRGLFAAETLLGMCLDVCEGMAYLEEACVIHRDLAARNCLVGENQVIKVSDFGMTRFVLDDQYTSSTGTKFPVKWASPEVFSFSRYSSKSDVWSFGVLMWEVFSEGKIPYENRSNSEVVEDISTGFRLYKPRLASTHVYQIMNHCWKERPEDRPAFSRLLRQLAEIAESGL
pIC50: −log10 of the molar value.
Give Met when the value for pIC50 is at least 7. Give Not met when it is less.

Prompt line: State whether the measured pIC50 reaches 7, counting equality as reaching it, for CN(C(=O)C1(C2CCC2)CCC1)c1cnc2nc(-c3n[nH]c4c3C[C@@H]3C[C@]3(C)C4)[nH]c2c1
Response line: Met

Prompt line: State whether the measured pIC50 reaches 7, counting equality as reaching it, for CCC(CC)C(=O)N(C)c1cnc2[nH]c(-c3n[nH]c4c3CCC(C)(C)C4)nc2c1
Response line: Not met

Prompt line: State whether the measured pIC50 reaches 7, counting equality as reaching it, for C[C@@H](C(=O)N(C)c1cnc2[nH]c(-c3n[nH]c4c3C[C@@H]3C(F)(F)[C@]3(C)C4)nc2c1)N1CCOCC1
Response line: Not met

Prompt line: State whether the measured pIC50 reaches 7, counting equality as reaching it, for CN(C(=O)C1CCCCC1)c1cnc2nc(-c3n[nH]c4c3C[C@@H]3C[C@]3(C)C4)[nH]c2c1
Response line: Met

Prompt line: State whether the measured pIC50 reaches 7, counting equality as reaching it, for C[C@H](C(=O)N(C)c1cnc2[nH]c(-c3n[nH]c4c3C[C@@H]3C[C@]3(C)C4)nc2c1)N1CCCCC1
Response line: Not met

Prompt line: State whether the measured pIC50 reaches 7, counting equality as reaching it, for CC[C@H](C)C(=O)N(C)c1cnc2nc(-c3n[nH]c4c3C[C@@H]3C[C@]3(C)C4)[nH]c2c1
Response line: Met

Prompt line: State whether the measured pIC50 reaches 7, counting equality as reaching it, for CN(C(=O)CC(C)(C)C)c1cnc2nc(-c3n[nH]c4c3C[C@@H]3C[C@]3(C)C4)[nH]c2c1
Response line: Met

Prompt line: State whether the measured pIC50 reaches 7, counting equality as reaching it, for CN(C(=O)C12CC(C1)C2)c1cnc2[nH]c(-c3n[nH]c4c3CCC(C)(C)C4)nc2c1
Response line: Not met

###

- assay system: IL-2-Inducible T-Cell Kinase (ITK) (Homo sapiens (Human))
- method description: ITK enzyme assay (IL-2-inducible T-cell kinase activity)
- Assay type: biochemical
- assay conditions: geometric mean of count n
For each of the molecules below, state its pIC50.
Notebook: values listed as pIC50 are -log10 of the concentration (mol/L).

Prompt line: Consider the molecule C[C@@H](C(=O)N(C)c1cnc2[nH]c(-c3n[nH]c4c3C[C@@H]3C[C@]3(C)C4)nc2c1)N1C[C@H]2CC[C@@H]1CO2 [Example 116] . State its measured pIC50.
Response line: 7.74

Prompt line: Consider the molecule CC(=O)N(C)c1cnc2[nH]c(-c3n[nH]c4c3CCC(C)(C)C4)nc2c1 [Example 20] . State its measured pIC50.
Response line: 6.64

Prompt line: Consider the molecule CC(C)[C@@H](C(=O)N(C)c1cnc2[nH]c(-c3n[nH]c4c3CC3C[C@]3(C)C4)nc2c1)N1CCOCC1 (stereo in doubt) [Example 3] . State its measured pIC50.
Response line: 7.42

Prompt line: Consider the molecule CN(C(=O)CC1CCCCC1)c1cnc2nc(-c3n[nH]c4c3C[C@@H]3C[C@]3(C)C4)[nH]c2c1 [Example 47] . State its measured pIC50.
Response line: 7.36

Prompt line: Consider the molecule CN(C(=O)CC1CCCC1)c1cnc2nc(-c3n[nH]c4c3C[C@@H]3C[C@]3(C)C4)[nH]c2c1 [Example 45] . State its measured pIC50.
Response line: 7.60

Prompt line: Consider the molecule CN(C(=O)C(F)C1CCOCC1)c1cnc2nc(-c3n[nH]c4c3C[C@@H]3C[C@]3(C)C4)[nH]c2c1 (stereo partly shown) [Example 11] . State its measured pIC50.
Response line: 7.14

Prompt line: Consider the molecule C[C@H](C(=O)N(C)c1cnc2nc(-c3n[nH]c4c3C[C@@H]3C[C@]3(C)C4)[nH]c2c1)n1cccn1 [Example 8] . State its measured pIC50.
Response line: 6.93

###

attribute measured: IC50
Mention the unit after the number when you answer.

Prompt line: Recall the reported IC50 of CN(C(=O)CC1CCOCC1)c1cnc2[nH]c(-c3n[nH]c4c3CCC(C)(C)C4)nc2c1 when tested on IL-2-Inducible T-Cell Kinase (ITK) (Homo sapiens (Human)).
Response line: 156 nM

Prompt line: Recall the reported IC50 of CN(C(=O)[C@H]1[C@@H]2COC[C@@H]21)c1cnc2nc(-c3n[nH]c4c3C[C@@H]3C[C@]3(C)C4)[nH]c2c1 when tested on IL-2-Inducible T-Cell Kinase (ITK) (Homo sapiens (Human)).
Response line: 292 nM

Prompt line: Recall the reported IC50 of C[C@H](C(=O)N(C)c1cnc2[nH]c(-c3n[nH]c4c3C[C@@H]3C[C@]3(C)C4)nc2c1)N1C[C@H]2CC[C@@H]1CO2 when tested on IL-2-Inducible T-Cell Kinase (ITK) (Homo sapiens (Human)).
Response line: 142 nM

Prompt line: Recall the reported IC50 of CN(c1cnc2nc(-c3n[nH]c4c3C[C@@H]3C[C@]3(C)C4)[nH]c2c1)C(=O)[C@H]1C[C@@H](C)C1 when tested on IL-2-Inducible T-Cell Kinase (ITK) (Homo sapiens (Human)).
Response line: 27 nM

Prompt line: Recall the reported IC50 of CC[C@@H](C(=O)N(C)c1cnc2[nH]c(-c3n[nH]c4c3C[C@@H]3C[C@]3(C)C4)nc2c1)N1CCOCC1 when tested on IL-2-Inducible T-Cell Kinase (ITK) (Homo sapiens (Human)).
Response line: 38 nM

Prompt line: Recall the reported IC50 of CN(C(=O)C1(C)CC(F)(F)C1)c1cnc2[nH]c(-c3n[nH]c4c3CCC(C)(C)C4)nc2c1 when tested on IL-2-Inducible T-Cell Kinase (ITK) (Homo sapiens (Human)).
Response line: 104 nM

Prompt line: Recall the reported IC50 of CC(C(=O)N(C)c1cnc2[nH]c(-c3n[nH]c4c3C[C@@H]3C[C@]3(C)C4)nc2c1)N1C2COCC1C2 (stereo partly shown) when tested on IL-2-Inducible T-Cell Kinase (ITK) (Homo sapiens (Human)).
Response line: 470 nM

Prompt line: Recall the reported IC50 of CC(C)C(=O)N(C)c1cnc2[nH]c(-c3n[nH]c4c3CCC(C)(C)C4)nc2c1 when tested on IL-2-Inducible T-Cell Kinase (ITK) (Homo sapiens (Human)).
Response line: 104 nM

Prompt line: Recall the reported IC50 of CCC1(C(=O)N(C)c2cnc3nc(-c4n[nH]c5c4C[C@@H]4C[C@]4(C)C5)[nH]c3c2)CCOCC1 when tested on IL-2-Inducible T-Cell Kinase (ITK) (Homo sapiens (Human)).
Response line: 150 nM

Prompt line: Recall the reported IC50 of CN(C(=O)CN1CCOCC1)c1cnc2nc(-c3n[nH]c4c3C[C@@H]3C[C@]3(C)C4)[nH]c2c1 when tested on IL-2-Inducible T-Cell Kinase (ITK) (Homo sapiens (Human)).
Response line: 102 nM

###

- assay system: Tropomyosin Receptor Kinase A (TRKA), NTRK1 enzyme (Homo sapiens (Human))
- Sequence (P04629 33-796): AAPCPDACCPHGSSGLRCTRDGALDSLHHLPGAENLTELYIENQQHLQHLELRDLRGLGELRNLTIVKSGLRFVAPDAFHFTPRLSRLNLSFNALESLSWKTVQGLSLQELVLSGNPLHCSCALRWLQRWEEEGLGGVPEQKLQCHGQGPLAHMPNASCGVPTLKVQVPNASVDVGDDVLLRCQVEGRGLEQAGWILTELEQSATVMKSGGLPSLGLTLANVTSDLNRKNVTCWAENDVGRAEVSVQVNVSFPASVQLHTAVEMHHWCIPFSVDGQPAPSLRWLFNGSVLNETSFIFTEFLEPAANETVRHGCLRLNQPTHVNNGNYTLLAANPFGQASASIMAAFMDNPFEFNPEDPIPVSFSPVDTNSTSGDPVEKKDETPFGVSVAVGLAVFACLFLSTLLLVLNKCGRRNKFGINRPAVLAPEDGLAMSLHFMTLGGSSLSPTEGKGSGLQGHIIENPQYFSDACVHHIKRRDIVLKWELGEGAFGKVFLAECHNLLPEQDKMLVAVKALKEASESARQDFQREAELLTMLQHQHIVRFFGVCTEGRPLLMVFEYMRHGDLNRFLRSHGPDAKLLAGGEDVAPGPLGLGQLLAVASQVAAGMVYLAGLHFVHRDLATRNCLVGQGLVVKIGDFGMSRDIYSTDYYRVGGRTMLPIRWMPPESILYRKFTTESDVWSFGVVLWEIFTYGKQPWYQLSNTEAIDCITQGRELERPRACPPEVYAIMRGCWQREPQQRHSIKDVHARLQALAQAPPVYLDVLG
- method description: TRKA (NTRK1) ThermoFisher Z'-LYTE enzyme assay
- Type: biochemical
- assay conditions: test compound 1 uM, ATP 1 mM; arithmetic mean of count n
For each of the molecules below, state its inhibition at 1 µM.
# unit: % | format: bare number

Prompt line: Consider the molecule CN(C(=O)C1(F)CCOCC1)c1cnc2nc(-c3n[nH]c4c3C[C@@H]3C[C@]3(C)C4)[nH]c2c1 . State its measured inhibition at 1 µM.
Response line: 95

Prompt line: Consider the molecule CC(=O)N(C)CC(=O)N(C)c1cnc2nc(-c3n[nH]c4c3C[C@@H]3C[C@]3(C)C4)[nH]c2c1 . State its measured inhibition at 1 µM.
Response line: 96

Prompt line: Consider the molecule C[C@@H](C(=O)N(C)c1cnc2[nH]c(-c3n[nH]c4c3C[C@H]3C(F)(F)[C@@]3(C)C4)nc2c1)N1CCOCC1 . State its measured inhibition at 1 µM.
Response line: 95

Prompt line: Consider the molecule C[C@@H](C(=O)N(CCO)c1cnc2[nH]c(-c3n[nH]c4c3C[C@@H]3C[C@]3(C)C4)nc2c1)C1CCOCC1 . State its measured inhibition at 1 µM.
Response line: 95

Prompt line: Consider the molecule CN(C(=O)C(C)(C)C)c1cnc2nc(-c3n[nH]c4c3C[C@@H]3C[C@]3(C)C4)[nH]c2c1 . State its measured inhibition at 1 µM.
Response line: 95

Prompt line: Consider the molecule C[C@H](C(=O)N(C)c1cnc2[nH]c(-c3n[nH]c4c3C[C@@H]3C[C@]3(C)C4)nc2c1)N1CCOCC1 . State its measured inhibition at 1 µM.
Response line: 91

###

For each of the molecules below, state its pIC50.
Notebook: values listed as pIC50 are -log10 of the concentration (mol/L).

Prompt line: Recall the reported pIC50 of CN(C(=O)C(C)(C)C1CCOCC1)c1cnc2nc(-c3n[nH]c4c3CC3C[C@]3(C)C4)[nH]c2c1 (stereo partly drawn) when tested on IL-2-Inducible T-Cell Kinase (ITK) (Homo sapiens (Human)).
Response line: 7.20

Prompt line: Recall the reported pIC50 of C[C@@H](C(=O)N(C)c1cnc2nc(-c3n[nH]c4c3C[C@@H]3C[C@]3(C)C4)[nH]c2c1)n1cccn1 when tested on IL-2-Inducible T-Cell Kinase (ITK) (Homo sapiens (Human)).
Response line: 7.15

Prompt line: Recall the reported pIC50 of CN(C(=O)[C@H](F)C1CCOCC1)c1cnc2nc(-c3n[nH]c4c3C[C@@H]3C[C@]3(C)C4)[nH]c2c1 when tested on IL-2-Inducible T-Cell Kinase (ITK) (Homo sapiens (Human)).
Response line: 7.12

Prompt line: Recall the reported pIC50 of C[C@@H](C(=O)N(C)c1cnc2[nH]c(-c3n[nH]c4c3C[C@@H]3C[C@]3(C)C4)nc2c1)N1CC2CC(C1)O2 (single isomer, unassigned) when tested on IL-2-Inducible T-Cell Kinase (ITK) (Homo sapiens (Human)).
Response line: 6.94

Prompt line: Recall the reported pIC50 of CN(C(=O)C1(C)CCC1)c1cnc2[nH]c(-c3n[nH]c4c3CCC(C)(C)C4)nc2c1 when tested on IL-2-Inducible T-Cell Kinase (ITK) (Homo sapiens (Human)).
Response line: 7.00

Prompt line: Recall the reported pIC50 of CN(C(=O)C1(C)CCC(F)(F)CC1)c1cnc2nc(-c3n[nH]c4c3C[C@@H]3C[C@]3(C)C4)[nH]c2c1 when tested on IL-2-Inducible T-Cell Kinase (ITK) (Homo sapiens (Human)).
Response line: 6.85
